From: ChEMBL document CHEMBL3091437

target.under.test: Prostate-specific antigen (PSA) (Homo sapiens, UniProt P07288)
Sequence (P07288 whole entry): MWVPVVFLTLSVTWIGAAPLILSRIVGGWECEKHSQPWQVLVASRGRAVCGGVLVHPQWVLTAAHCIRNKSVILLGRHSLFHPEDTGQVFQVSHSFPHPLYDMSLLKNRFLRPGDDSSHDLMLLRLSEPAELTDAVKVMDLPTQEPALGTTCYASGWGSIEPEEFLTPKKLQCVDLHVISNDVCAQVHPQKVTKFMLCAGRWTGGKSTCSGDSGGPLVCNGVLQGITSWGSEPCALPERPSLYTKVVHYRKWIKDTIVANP
experimental.details: Drug metabolism assessed as PSA (unknown origin)-mediated digestion assessed as compound remaining after 4 hrs by HPLC analysis
Assay type: ADME
measurement.parameters: PSA (prostate-specific antigen) enzyme, read-out: Drug metabolism
Numbered stars: 1 amine (or outer) side, 2 acyl side, 3 side chain; on linkers, the order of the positions; unused ones are H or OH. Square brackets hold non-standard residues; d marks the D form. Peptide text beside a SMILES is read from it. * marks the point of attachment. X1 = O=P1(N(CCCl)CCCl)N[C@@H](N*)CCO1; Glutaryl = O=C(CCCC(=O)[*:2])[*:1]; Hyp = O=C(O)[C@@H]1C[C@@H](O)CN1; Chg = N[C@H](C(=O)O)C1CCCCC1
measured.quantity: remaining at 4 h

In: Which measured remaining at 4 h belongs to C[C@H](NC(=O)[C@@H]1C[C@@H](O)CN1C(=O)CCCC(=O)O)C(=O)N[C@@H](CO)C(=O)N[C@H](C(=O)N[C@@H](CCC(N)=O)C(=O)N[C@H]1CCOP(=O)(N(CCCl)CCCl)N1)C1CCCCC1 (stereo partly specified) (Glutaryl-[Hyp]AS[Chg]Q-X1) , tested on Prostate-specific antigen (PSA) (Homo sapiens, UniProt P07288)?
Out: < 10%
